- tested system: MASP-2 CCP2-SP (Homo sapiens (Human), UniProt O00187)
- Sequence (O00187 445-686): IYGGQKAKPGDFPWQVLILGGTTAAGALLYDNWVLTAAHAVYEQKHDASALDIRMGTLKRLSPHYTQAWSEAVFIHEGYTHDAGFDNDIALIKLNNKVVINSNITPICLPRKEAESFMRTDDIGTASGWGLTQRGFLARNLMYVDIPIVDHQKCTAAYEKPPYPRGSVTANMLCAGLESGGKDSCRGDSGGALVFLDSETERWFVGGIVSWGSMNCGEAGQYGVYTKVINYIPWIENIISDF
- Sequence (O00187 364-432 partner): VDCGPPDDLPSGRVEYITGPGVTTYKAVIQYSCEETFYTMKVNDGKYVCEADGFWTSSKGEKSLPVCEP
- experimental details: MASP-2 co-crystallization, X-ray crystallography and structure analysis (H-bonds, van der Waals contacts)
- condition info: Table A6-2 pharmacophore angle
readout kind: a(O1, O2, N2)
Answer field: number only, no words.

>  <compound>
C[C@H](NC(=O)[C@H]1C[C@H](Cc2ccccc2)CN1)C(=O)NCc1ccc(C(=N)N)cc1.Cl.Cl [1306_2]

>  <numeric value>
153.80

$$$$
>  <compound>
C[C@H](NC(=O)[C@H]1C[C@H](Cc2ccccc2)CN1)C(=O)NCc1ccc(C(=N)N)cc1.Cl.Cl [1306_1]

>  <numeric value>
135.46

$$$$

Prompt: Notebook: pull reported a(O1, O2, N2) for MASP-2 CCP2-SP (Homo sapiens (Human), UniProt O00187), entry `C[C@H](NC(=O)[C@@H](CCc1ccccc1)NCc1ccc(C(=O)N2CCOCC2)cc1)C(=O)NCc1ccc(C(=N)N)cc1.Cl.Cl`
Completion: 44.76
